Target: hMC5-R (Homo sapiens, UniProt P33032)
Sequence (P33032 whole entry): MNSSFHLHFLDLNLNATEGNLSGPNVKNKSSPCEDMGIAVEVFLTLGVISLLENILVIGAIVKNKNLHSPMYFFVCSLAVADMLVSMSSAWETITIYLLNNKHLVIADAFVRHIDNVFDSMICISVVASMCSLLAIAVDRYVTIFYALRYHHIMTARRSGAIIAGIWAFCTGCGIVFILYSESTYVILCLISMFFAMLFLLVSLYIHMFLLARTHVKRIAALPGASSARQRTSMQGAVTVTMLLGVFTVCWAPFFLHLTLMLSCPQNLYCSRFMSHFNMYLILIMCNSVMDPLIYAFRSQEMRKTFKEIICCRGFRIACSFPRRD
pKi: −log10 of the molar value. Where a SMILES comes first, the peptide text is derived from it. Bridges are numbered along the chain shown (N, C = ends). [ ]: non-standard residue; d: D form. 1Nal = N[C@@H](Cc1cccc2ccccc12)C(=O)O

compound | prefixOperator | pKi
CC(=O)N[C@H]1CC(=O)NCCCC[C@@H](C(=O)N(C)C)NC(=O)[C@H](Cc2cccc3ccccc23)NC(=O)[C@H](CCCNC(=N)N)NC(=O)[C@@H](Cc2ccccc2)NC(=O)[C@H](Cc2c[nH]c3ccccc23)NC1=O [Example 15] (Ac-DW[dF]R[1Nal]K-NMe2; lactam 1-6 (inferred)) | = | 6.26
CCNC(=O)[C@@H]1CCCCNC(=O)C[C@H](NC(C)=O)C(=O)N[C@@H](Cc2c[nH]c3ccccc23)C(=O)N[C@H](Cc2ccccc2)C(=O)N[C@@H](CCCNC(=N)N)C(=O)N[C@@H](Cc2cccc3ccccc23)C(=O)N1 [Example 14] (Ac-DW[dF]R[1Nal]K-NHEt; lactam 1-6 (inferred)) | < | 5.70
CC(=O)N[C@H]1CC(=O)NCCCC[C@@H](C(=O)N(C)C)NC(=O)[C@H](Cc2cccc3ccccc23)NC(=O)[C@H](CCCNC(=N)N)NC(=O)[C@@H](Cc2ccccc2)NC(=O)[C@H](Cc2c[nH]cn2)NC1=O [Example 17] (Ac-DH[dF]R[1Nal]K-NMe2; lactam 1-6 (inferred)) | < | 5.00
CCNC(=O)[C@@H]1CCCCNC(=O)C[C@H](NC(C)=O)C(=O)N[C@@H](Cc2c[nH]cn2)C(=O)N[C@H](Cc2ccccc2)C(=O)N[C@@H](CCCNC(=N)N)C(=O)N[C@@H](Cc2cccc3ccccc23)C(=O)N1 [Example 16] (Ac-DH[dF]R[1Nal]K-NHEt; lactam 1-6 (inferred)) | = | 6.03

* * *

Target: hMC4-R (HEK-293 cells) (Homo sapiens)
Construct: expressed in transfected cells; host or cells: HEK-293
Assay: cAMP functional assay for agonist/antagonist status, MC4-R
Assay type: cell-based
Conditions: cAMP response ratio to NDP-α-MSH
Where a SMILES comes first, the peptide text is derived from it. Bridges are numbered along the chain shown (N, C = ends). [ ]: non-standard residue; d: D form. 1Nal = N[C@@H](Cc1cccc2ccccc12)C(=O)O; Nle = CCCC[C@H](N)C(=O)O

compound | efficacy relative to NDP-α-MSH, MC4-R
CCCC[C@H](NC(C)=O)C(=O)N[C@H]1CC(=O)NCCCC[C@@H](C(=O)NCC)NC(=O)[C@H](Cc2cccc3ccccc23)NC(=O)[C@H](CCCNC(=N)N)NC(=O)[C@@H](Cc2ccccc2)NC(=O)[C@H](Cc2c[nH]cn2)NC1=O | 0.6
CCCC[C@H](NC(C)=O)C(=O)N[C@H]1CC(=O)NCCCC[C@@H](C(=O)N(C)C)NC(=O)[C@H](Cc2cccc3ccccc23)NC(=O)[C@H](CCCNC(=N)N)NC(=O)[C@@H](Cc2ccccc2)NC(=O)[C@H](Cc2c[nH]c3ccccc23)NC1=O [Example 10] (Ac-[Nle]DW[dF]R[1Nal]K-NMe2; lactam 2-7 (inferred)) | 0.8
CCCC[C@H](NC(C)=O)C(=O)N[C@H]1CC(=O)NCCCC[C@@H](C(=O)N(C)C)NC(=O)[C@H](Cc2cccc3ccccc23)NC(=O)[C@H](CCCNC(=N)N)NC(=O)[C@@H](Cc2ccccc2)NC(=O)[C@H](Cc2c[nH]cn2)NC1=O | 0.7
CCNC(=O)[C@@H]1CCCCNC(=O)C[C@H](NC(C)=O)C(=O)N[C@@H](Cc2c[nH]cn2)C(=O)N[C@H](Cc2ccccc2)C(=O)N[C@@H](CCCNC(=N)N)C(=O)N[C@@H](Cc2cccc3ccccc23)C(=O)N1 [Example 16] (Ac-DH[dF]R[1Nal]K-NHEt; lactam 1-6 (inferred)) | 1.1

* * *

Target: MC4-R (Homo sapiens)
Construct: expressed in transfected cells; host or cells: HEK-293
Sequence (P32245 whole entry): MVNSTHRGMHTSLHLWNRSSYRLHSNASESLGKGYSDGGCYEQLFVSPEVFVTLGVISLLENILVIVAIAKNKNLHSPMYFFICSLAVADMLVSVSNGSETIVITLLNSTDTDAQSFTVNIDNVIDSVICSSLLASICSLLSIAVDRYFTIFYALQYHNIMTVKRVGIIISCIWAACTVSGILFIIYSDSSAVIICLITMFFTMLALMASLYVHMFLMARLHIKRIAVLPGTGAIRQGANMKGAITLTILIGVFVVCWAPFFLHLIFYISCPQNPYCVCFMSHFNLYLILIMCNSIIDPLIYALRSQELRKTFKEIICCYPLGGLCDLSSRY
Experiment: Competitive inhibition Ki (AgRP), MC4-R
Type: binding
Details: AgRP as competing ligand
Where a SMILES comes first, the peptide text is derived from it. Bridges are numbered along the chain shown (N, C = ends). [ ]: non-standard residue; d: D form. 1Nal = N[C@@H](Cc1cccc2ccccc12)C(=O)O; Nle = CCCC[C@H](N)C(=O)O
API: label(entry) gives criterion met if the entry's Ki is strictly smaller than 10 nM; on equality or larger values it gives criterion not met.

compound | assignedCategory
CCNC(=O)[C@@H]1CCCCNC(=O)C[C@H](NC(C)=O)C(=O)N[C@@H](Cc2c[nH]cn2)C(=O)N[C@H](Cc2ccccc2)C(=O)N[C@@H](CCCNC(=N)N)C(=O)N[C@@H](Cc2c[nH]c3ccccc23)C(=O)N1 [Example 12] | criterion not met
CCCC[C@H](NC(C)=O)C(=O)N[C@H]1CC(=O)NCCCC[C@@H](C(=O)NCC)NC(=O)[C@H](Cc2cccc3ccccc23)NC(=O)[C@H](CCCNC(=N)N)NC(=O)[C@@H](Cc2ccccc2)NC(=O)[C@H](Cc2c[nH]c3ccccc23)NC1=O [Example 18] (Ac-[Nle]DW[dF]R[1Nal]K-NHEt; lactam 2-7 (inferred)) | criterion not met
CC(=O)N[C@H]1CC(=O)NCCCC[C@@H](C(=O)N(C)C)NC(=O)[C@H](Cc2cccc3ccccc23)NC(=O)[C@H](CCCNC(=N)N)NC(=O)[C@@H](Cc2ccccc2)NC(=O)[C@H](Cc2c[nH]c3ccccc23)NC1=O [Example 15] (Ac-DW[dF]R[1Nal]K-NMe2; lactam 1-6 (inferred)) | criterion not met
CCCC[C@H](NC(C)=O)C(=O)N[C@H]1CC(=O)NCCCC[C@@H](C(=O)N(C)C)NC(=O)[C@H](Cc2c[nH]c3ccccc23)NC(=O)[C@H](CCCNC(=N)N)NC(=O)[C@@H](Cc2ccccc2)NC(=O)[C@H](Cc2c[nH]cn2)NC1=O [Example 8] | criterion met
CCCC[C@H](NC(C)=O)C(=O)N[C@H]1CC(=O)NCCCC[C@@H](C(=O)NCC)NC(=O)[C@H](Cc2c[nH]c3ccccc23)NC(=O)[C@H](CCCNC(=N)N)NC(=O)[C@@H](Cc2ccccc2)NC(=O)[C@H](Cc2c[nH]cn2)NC1=O [Example 7] | criterion met
CCNC(=O)[C@@H]1CCCCNC(=O)C[C@H](NC(C)=O)C(=O)N[C@@H](Cc2c[nH]cn2)C(=O)N[C@H](Cc2ccccc2)C(=O)N[C@@H](CCCNC(=N)N)C(=O)N[C@@H](Cc2cccc3ccccc23)C(=O)N1 [Example 16] (Ac-DH[dF]R[1Nal]K-NHEt; lactam 1-6 (inferred)) | criterion not met
CCCC[C@H](NC(C)=O)C(=O)N[C@H]1CC(=O)NCCCC[C@@H](C(=O)N(C)C)NC(=O)[C@H](Cc2cccc3ccccc23)NC(=O)[C@H](CCCNC(=N)N)NC(=O)[C@@H](Cc2ccccc2)NC(=O)[C@H](Cc2c[nH]c3ccccc23)NC1=O [Example 10] (Ac-[Nle]DW[dF]R[1Nal]K-NMe2; lactam 2-7 (inferred)) | criterion not met

* * *

Target: hMC3-R (HEK-293 cells) (Homo sapiens)
Construct: expressed in transfected cells; host or cells: HEK-293
Sequence (P41968 whole entry): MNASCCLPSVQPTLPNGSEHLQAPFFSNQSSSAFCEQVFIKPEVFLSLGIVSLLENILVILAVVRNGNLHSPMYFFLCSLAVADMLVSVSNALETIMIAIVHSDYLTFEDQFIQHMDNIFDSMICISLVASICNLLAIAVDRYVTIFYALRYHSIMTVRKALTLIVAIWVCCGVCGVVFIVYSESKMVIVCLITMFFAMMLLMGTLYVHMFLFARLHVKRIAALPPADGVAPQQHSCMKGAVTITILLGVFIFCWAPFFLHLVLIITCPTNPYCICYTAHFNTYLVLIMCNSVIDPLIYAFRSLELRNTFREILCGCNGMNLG
Assay: cAMP functional assay for agonist/antagonist status, MC3-R
Assay type: cell-based
Details: cAMP assay
Where a SMILES comes first, the peptide text is derived from it. Bridges are numbered along the chain shown (N, C = ends). [ ]: non-standard residue; d: D form. 1Nal = N[C@@H](Cc1cccc2ccccc12)C(=O)O; Nle = CCCC[C@H](N)C(=O)O
metricName: agonist/antagonist status as to MC3-R

compound | recordedResult
CCCC[C@H](NC(C)=O)C(=O)N[C@H]1CC(=O)NCCCC[C@@H](C(=O)N(C)C)NC(=O)[C@H](Cc2cccc3ccccc23)NC(=O)[C@H](CCCNC(=N)N)NC(=O)[C@@H](Cc2ccccc2)NC(=O)[C@H](Cc2c[nH]c3ccccc23)NC1=O [Example 10] (Ac-[Nle]DW[dF]R[1Nal]K-NMe2; lactam 2-7 (inferred)) | inactive
CCNC(=O)[C@@H]1CCCCNC(=O)C[C@H](NC(C)=O)C(=O)N[C@@H](Cc2c[nH]c3ccccc23)C(=O)N[C@H](Cc2ccccc2)C(=O)N[C@@H](CCCNC(=N)N)C(=O)N[C@@H](Cc2cccc3ccccc23)C(=O)N1 [Example 14] (Ac-DW[dF]R[1Nal]K-NHEt; lactam 1-6 (inferred)) | inactive
CC(=O)N[C@H]1CC(=O)NCCCC[C@@H](C(=O)N(C)C)NC(=O)[C@H](Cc2cccc3ccccc23)NC(=O)[C@H](CCCNC(=N)N)NC(=O)[C@@H](Cc2ccccc2)NC(=O)[C@H](Cc2c[nH]c3ccccc23)NC1=O [Example 15] (Ac-DW[dF]R[1Nal]K-NMe2; lactam 1-6 (inferred)) | inactive
